Target: Mitogen-activated protein kinase 9 (Homo sapiens)
Assay: Inhibition of JNK2 by ATF2 phosphorylation assay
Just so you know, the groups by IC50 go like this: low bracket = under 300 nM, middle bracket = from 300 nM up to 1000 nM, high bracket = 1000 nM and over

Solved entries:
| Chemical structure | Qualitative label |
| --- | --- |
| CS(=O)(=O)c1ccc(CNC(=O)c2cc(N)c(C#N)c(-c3cccc(O)c3)n2)cc1 | low bracket |
| COc1cccc(-c2nc(C(=O)NCc3ccc(S(C)(=O)=O)cc3)cc(N)c2C#N)c1 | middle bracket |
| CS(=O)(=O)c1ccc(CNC(=O)c2cc(N)c(C#N)c(-c3ccsc3CO)n2)cc1 | middle bracket |

Lookup: Quick check: band for CCOc1nc(C(=O)NCc2ccc(S(C)(=O)=O)cc2)cc(N)c1C(N)=O
Found: middle bracket

Lookup: State the band of CS(=O)(=O)c1ccc(CNC(=O)c2cc(N)c(C#N)c(OCC3CC3)n2)cc1
Found: low bracket

----------
Biological target: Mitogen-activated protein kinase 9 (Homo sapiens)
Experiment: Inhibition of JNK2 by ATF2 phosphorylation assay
Label true (1) when IC50 < 200 nM; otherwise false (0).

Example cases with answers are listed next.
| Chemical structure | Qualitative label |
| --- | --- |
| CS(=O)(=O)c1ccc(CNC(=O)c2cc(N)c(C#N)c(/C=C/C(=O)O)n2)cc1 | false (0) |
| COCCNc1nc(C(=O)NCc2ccc(S(C)(=O)=O)cc2)cc(N)c1C#N | false (0) |
| COc1ccc(Oc2nc(C(=O)NCc3ccc(S(C)(=O)=O)cc3)cc(N)c2C#N)cc1 | false (0) |
| CS(=O)(=O)c1ccc(CNC(=O)c2cc(N)c(C#N)c(NCCCO)n2)cc1 | true (1) |
| CS(=O)(=O)c1ccc(CNC(=O)c2cc(N)c(C#N)c(NCCO)n2)cc1 | true (1) |

# input for lookup
Lookup: Would you kindly verify if IC50 of CS(=O)(=O)c1ccc(CNC(=O)c2cc(N)c(C#N)c(OCC3CCCC3)n2)cc1 is strictly less than 200 nM?
Found: false (0)

----------
Biological target: c-Jun N-terminal kinase, JNK (Homo sapiens, UniProt P45983+P53779+P45984)
Assay: Inhibition of PcJun phosphorylation in HepG2 cells
Format: functional, cell-based
Assay metric: IC50

Check out these entries, answers already filled in.
| Chemical structure | IC50 |
| --- | --- |
| CS(=O)(=O)c1ccc(CNC(=O)c2cc(N)c(C#N)c(-c3cncnc3)n2)cc1 | > 10 µM |
| CS(=O)(=O)c1ccc(CNC(=O)c2cc(N)c(C#N)c(NCCO)n2)cc1 | > 10 µM |
| C[C@@H](CO)Nc1nc(C(=O)NCc2ccc(S(C)(=O)=O)cc2)cc(N)c1C#N | 2.6 µM |
| CS(=O)(=O)c1ccc(CNC(=O)c2cc(N)c(C#N)c(-c3cccc(S(C)(=O)=O)c3)n2)cc1 | 10.5 µM |
| CS(=O)(=O)c1ccc(CNC(=O)c2cc(N)c(C#N)c(-c3ccoc3)n2)cc1 | 4.3 µM |

Hey, can you go through the list below and give me IC50 for every item?
1. CS(=O)(=O)c1ccc(CNC(=O)c2cc(N)c(C#N)c(NCCCO)n2)cc1
2. C/C=C\c1nc(C(=O)NCc2ccc(S(C)(=O)=O)cc2)cc(N)c1C#N
3. CS(=O)(=O)c1ccc(CNC(=O)c2cc(N)c(C#N)c(-c3cccc(Cl)c3)n2)cc1
4. CS(=O)(=O)c1ccc(CNC(=O)c2cc(N)c(C#N)c(OCC3CC3)n2)cc1
5. CS(=O)(=O)c1ccc(CNC(=O)c2cc(N)c(C#N)c(NC3CCCC3)n2)cc1

Found:
8.3 µM
5.5 µM
1.2 µM
0.56 µM
0.48 µM

----------
Target: Mitogen-activated protein kinase 9 (Homo sapiens, UniProt P45984)
Sequence (P45984 whole entry): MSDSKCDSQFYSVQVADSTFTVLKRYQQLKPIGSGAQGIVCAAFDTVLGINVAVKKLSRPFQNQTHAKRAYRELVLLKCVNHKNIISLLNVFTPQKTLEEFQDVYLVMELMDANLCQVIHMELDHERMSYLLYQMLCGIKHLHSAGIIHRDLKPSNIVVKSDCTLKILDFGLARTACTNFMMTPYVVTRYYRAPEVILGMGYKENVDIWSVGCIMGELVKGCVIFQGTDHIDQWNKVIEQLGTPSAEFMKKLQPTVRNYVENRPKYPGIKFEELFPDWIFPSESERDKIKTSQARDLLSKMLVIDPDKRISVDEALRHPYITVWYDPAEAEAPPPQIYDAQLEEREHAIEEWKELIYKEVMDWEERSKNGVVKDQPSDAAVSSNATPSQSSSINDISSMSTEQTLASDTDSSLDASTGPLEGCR
Experiment: Inhibition of JNK2 by ATF2 phosphorylation assay
Task for the reader: assign each of the following molecules its reported IC50.
One number for each entry, in nM.

| Chemical structure | Tgt | IC50 [nM] |
| --- | --- | --- |
| CCOc1nc(C(=O)NCc2ccc(S(C)(=O)=O)cc2)cc(N)c1/C=C/C#N | Mitogen-activated protein kinase 9 (Homo sapiens, UniProt P45984) | 1790 |
| CS(=O)(=O)c1ccc(CNC(=O)c2cc(N)c(C#N)c(-c3cccc(S(C)(=O)=O)c3)n2)cc1 | Mitogen-activated protein kinase 9 (Homo sapiens, UniProt P45984) | 97 |

List the reported IC50 of each molecule below.
1. CS(=O)(=O)c1ccc(CNC(=O)c2cc(N)c(C#N)c(-c3cncnc3)n2)cc1
2. CS(=O)(=O)c1ccc(CNC(=O)c2cc(N)c(C#N)c(-c3ccc(C(=O)O)s3)n2)cc1
3. CS(=O)(=O)c1ccc(CNC(=O)c2cc(N)c(C#N)c(CCC(=O)O)n2)cc1
4. CS(=O)(=O)c1ccc(CNC(=O)c2cc(N)c(C#N)c(NC(CO)CO)n2)cc1
5. CS(=O)(=O)c1ccc(CNC(=O)c2cc(N)c(C#N)c(-c3ccsc3)n2)cc1
6. CS(=O)(=O)c1ccc(CNC(=O)c2cc(N)c(C#N)c(/C=C/c3ccccc3)n2)cc1
7. CC(C)[C@@H](CO)Nc1nc(C(=O)NCc2ccc(S(C)(=O)=O)cc2)cc(N)c1C#N
8. CS(=O)(=O)c1ccc(CNC(=O)c2cc(N)c(C#N)c(-c3ccncc3)n2)cc1

Found:
[860, 160, 6920, 100, 390, 1290, 1400, 660]

----------
Target: c-Jun N-terminal kinase, JNK (Homo sapiens, UniProt P45983+P53779+P45984)
Assay: Inhibition of PcJun phosphorylation in HepG2 cells
Type: functional, cell-based
What IC50 was measured for each of the following?
One number for each entry, in µM.

| Chemical structure | Units text | IC50 |
| --- | --- | --- |
| CCOc1nc(C(=O)NCc2ccc(S(C)(=O)=O)cc2)cc(N)c1C#C/C=C/CO | µM | 5.24 |
| CS(=O)(=O)c1ccc(CNC(=O)c2cc(N)c(C#N)c(/C=C/CCO)n2)cc1 | µM | 5.3 |
| CS(=O)(=O)c1ccc(CNC(=O)c2cc(N)c(C#N)c(-c3cccnc3)n2)cc1 | µM | 7.3 |

Batch lookup, IC50 per entry.
1. CS(=O)(=O)c1ccc(CNC(=O)c2cc(N)c(C#N)c(NC3CC3)n2)cc1
2. CS(=O)(=O)c1ccc(CNC(=O)c2cc(N)c(C#N)c(OCC3CCCC3)n2)cc1

Found:
1. 1.2
2. 0.49

Lookup: So what's the measured IC50 for this one? CS(=O)(=O)c1ccc(CNC(=O)c2cc(N)c(C#N)c(NC3CCC3)n2)cc1
Found: 0.62

----------
Molecular target: c-Jun N-terminal kinase, JNK (Homo sapiens, UniProt P45983+P53779+P45984)
Test: Inhibition of PcJun phosphorylation in HepG2 cells
Assay type: functional, cell-based
Assay metric: log10 of IC50 (log10 of the value in µM)
Recall that a logarithmic scale is used here: each number is log10 of IC50 in µM.

Field: example entries. Status: answers known.
| Chemical structure | log10 of IC50 |
| --- | --- |
| C/C=C/c1nc(C(=O)NCc2ccc(S(C)(=O)=O)cc2)cc(N)c1C#N | -0.05 |
| C#C/C=C/c1c(N)cc(C(=O)NCc2ccc(S(C)(=O)=O)cc2)nc1OCC | 0.15 |
| C=Cc1c(N)cc(C(=O)NCc2ccc(S(C)(=O)=O)cc2)nc1OCC | 0.67 |
| CC(C)NC(=O)c1nc(C(=O)NCc2ccc(S(C)(=O)=O)cc2)cc(N)c1C#N | 0.46 |
| CS(=O)(=O)c1ccc(CNC(=O)c2cc(N)c(C#N)c(NCCc3ccccc3)n2)cc1 | 0.43 |

# batch size: 2; output log10 of IC50 per entry
1. CS(=O)(=O)c1ccc(CNC(=O)c2cc(N)c(C#N)c(-c3ccsc3CO)n2)cc1
2. CCOc1nc(C(=O)NCc2ccc(S(C)(=O)=O)cc2)cc(N)c1C#CCO

Found:
1: 1.03; 2: 0.76

----------
Biological target: c-Jun N-terminal kinase, JNK (Homo sapiens, UniProt P45983+P53779+P45984)
Assay: Inhibition of PcJun phosphorylation in HepG2 cells
Type: functional, cell-based
Just a reminder that ties go to false: only IC50 strictly below 500 nM counts as true.

Recorded results for 5 molecules are shown here.
| Chemical structure | Tgt | Qualitative label |
| --- | --- | --- |
| CS(=O)(=O)c1ccc(CNC(=O)c2cc(N)c(C#N)c(/C=C/C(=O)O)n2)cc1 | c-Jun N-terminal kinase, JNK (Homo sapiens, UniProt P45983+P53779+P45984) | false |
| C[C@H](CO)Nc1nc(C(=O)NCc2ccc(S(C)(=O)=O)cc2)cc(N)c1C#N | c-Jun N-terminal kinase, JNK (Homo sapiens, UniProt P45983+P53779+P45984) | false |
| CC(C)Oc1nc(C(=O)NCc2ccc(S(C)(=O)=O)cc2)cc(N)c1C#N | c-Jun N-terminal kinase, JNK (Homo sapiens, UniProt P45983+P53779+P45984) | true |
| CS(=O)(=O)c1ccc(CNC(=O)c2cc(N)c(C#N)c(/C=C/c3ccccc3)n2)cc1 | c-Jun N-terminal kinase, JNK (Homo sapiens, UniProt P45983+P53779+P45984) | true |
| CS(=O)(=O)c1ccc(CNC(=O)c2cc(N)c(C#N)c(-c3ccsc3)n2)cc1 | c-Jun N-terminal kinase, JNK (Homo sapiens, UniProt P45983+P53779+P45984) | false |

Lookup: Say whether its IC50 is strictly beneath 500 nM. Entry: C#Cc1c(N)cc(C(=O)NCc2ccc(S(C)(=O)=O)cc2)nc1OCC
Found: false

Lookup: Does CCOc1nc(C(=O)NCc2ccc(S(C)(=O)=O)cc2)cc(N)c1/C=C/c1ccccc1 have IC50 strictly under 500 nM?
Found: false

Lookup: Hi there! Is IC50 for COc1cccc(-c2nc(C(=O)NCc3ccc(S(C)(=O)=O)cc3)cc(N)c2C#N)c1 below 500 nM, do you know?
Found: false
